# testedSystem: T1, Anti-CD28 Fab (SEQ ID NOs: 696, 697)
# T1 construct: Biotinylated and captured on neutravidin coated plates in the phage ELISA
# T1 sequence (VH, as listed by the source, chain 1 of 2): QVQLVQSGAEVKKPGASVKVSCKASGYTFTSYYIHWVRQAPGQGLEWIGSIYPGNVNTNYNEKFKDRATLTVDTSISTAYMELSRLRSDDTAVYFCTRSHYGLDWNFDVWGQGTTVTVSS
# T1 sequence (VL, as listed by the source, chain 2 of 2): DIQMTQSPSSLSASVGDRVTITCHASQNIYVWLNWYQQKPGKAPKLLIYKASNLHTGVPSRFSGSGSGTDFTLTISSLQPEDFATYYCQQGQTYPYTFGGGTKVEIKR
# protocolDetails: phage ELISA, clonal phage on plate-captured biotinylated anti-CD28 Fab, anti-M13 HRP detection
metricName: Anti-CD28 Fab signal (phage binding ELISA)

YCEGHSWEHMEKCL [Phage-973] : 1.58
YCEGHADEYMWKCL [Phage-970] : 1.59
YCEGHSEEFMSKCL [Phage-982] : 1.57
YCDGHAKEYIQKCL [Phage-976] : 1.58
YCDGHLPQYLQKCT [Phage-975] : 1.58
YCEGHLGIYMTKCL [Phage-980] : 1.57
YCDGHSWQYMWKCI [Phage-981] : 1.57
YCAGHSSEYIPKCL [Phage-974] : 1.58

Provenance of the data: patent US20260242478A1
